Below, each entry is listed alongside its reported displacement.
Tgt: Heat shock cognate 71 kDa protein (Homo sapiens) (UniProt P11142)
Sequence (P11142 whole entry, looked up): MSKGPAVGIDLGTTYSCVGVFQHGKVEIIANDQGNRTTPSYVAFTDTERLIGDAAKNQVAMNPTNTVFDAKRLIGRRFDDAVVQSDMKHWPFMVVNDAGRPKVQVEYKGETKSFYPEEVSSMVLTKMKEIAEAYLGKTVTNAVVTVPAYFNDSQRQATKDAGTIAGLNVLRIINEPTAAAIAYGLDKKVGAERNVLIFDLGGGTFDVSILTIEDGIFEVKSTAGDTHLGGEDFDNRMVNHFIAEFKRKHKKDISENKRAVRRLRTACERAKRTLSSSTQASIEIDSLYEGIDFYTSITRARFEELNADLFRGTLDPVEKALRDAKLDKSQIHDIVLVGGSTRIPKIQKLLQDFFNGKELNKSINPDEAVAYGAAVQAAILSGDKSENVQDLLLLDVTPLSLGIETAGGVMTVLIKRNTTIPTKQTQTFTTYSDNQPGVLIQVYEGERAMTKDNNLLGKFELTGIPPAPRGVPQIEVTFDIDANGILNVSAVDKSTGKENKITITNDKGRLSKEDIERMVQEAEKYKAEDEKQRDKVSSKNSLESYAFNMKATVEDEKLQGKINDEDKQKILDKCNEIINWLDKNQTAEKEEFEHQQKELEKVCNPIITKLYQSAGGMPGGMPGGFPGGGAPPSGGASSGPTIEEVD
Sequence (P11142 whole entry, looked up): as above
Experiment Summary: Hsc70 inhibitors, probe displacement, primary screen, biochemical, fluorescence polarization (AID 568)
Measurement Parameters: mP, at 20 µM, stronger effect = higher value
In all, about 83,000 compounds went through this assay and fewer than 10 were called active. Not all results are given here. Entries with a potency or affinity are not part of this list.

Please review the following examples before continuing.
- Compound: "CCOC(=O)N1CCN(C(=O)c2ccc(N3C(=O)c4ccccc4C3=O)cc2)CC1"
  Measured Property: "displacement"
  Test Value: "-0.7% (inactive)"
- Compound: "CCc1nnc(NC(=O)CSc2nnnn2C)s1"
  Measured Property: "displacement"
  Test Value: "-1.1% (inactive)"
- Compound: "COc1ccc(C2C(C(=O)NC(C)C)c3ccccc3C(=O)N2C)cc1OC (stereo unspecified)"
  Measured Property: "displacement"
  Test Value: "-8.3% (inactive)"

Recorded displacement (compound `Cn1c(CCN2CCN(c3ccccc3)CC2)nc2cc(NC(=O)c3ccco3)ccc21` ): 0.4% (inactive)

Recorded displacement (compound `COc1ccc(OC)c(-n2nnnc2SCC(=O)O)c1` ): 4.6% (inactive)

Recorded displacement (compound `COc1ccc(NC(=O)CCn2nc(C)cc2C)cc1` ): -4.3% (inactive)

Recorded displacement (compound `Cc1ccc(S(=O)(=O)/N=C2/C=C(C3C(=O)CC(C)(C)CC3=O)C(=O)c3ccccc32)cc1` ): 4% (inactive)

Recorded displacement (compound `CCCCn1c(=O)n(CC(=O)Nc2ccc(C)c(Cl)c2)c(=O)c2c1ncn2Cc1ccco1` ): -21.2% (inactive)

Recorded displacement (compound `Cc1nn(-c2ccccn2)c2nc(-c3cccs3)cc(C(=O)N3CCOCC3)c12` ): 0.1% (inactive)

###

Tgt: Heat shock cognate 71 kDa protein (Homo sapiens)
Experiment Summary: Hsc70 inhibitors, probe displacement, primary screen, biochemical, fluorescence polarization (AID 568)
Measurement Parameters: mP, at 20 µM, stronger effect = higher value
Fewer than 10 of roughly 83,000 compounds were called active. The list is a sample of the results. Results with a measured potency or affinity are listed apart.
Measured Property: displacement

Please review the following examples before continuing.
- Compound: "NC(=O)CSc1nnc(Cc2ccc3c(c2)OCO3)n1C1CCCCC1"
  Tgt: "Heat shock cognate 71 kDa protein (Homo sapiens)"
  Measured Property: "displacement"
  Test Value: "-4.2% (inactive)"
- Compound: "CC(=O)Nc1ccc(S(=O)(=O)Nc2cccc(N(C)S(C)(=O)=O)c2)cc1"
  Tgt: "Heat shock cognate 71 kDa protein (Homo sapiens)"
  Measured Property: "displacement"
  Test Value: "-0.7% (inactive)"
- Compound: "CCN1CCN(CCCNC(=O)C2CCCN(c3nnc(-n4cccc4)s3)C2)CC1 (stereo not given)"
  Tgt: "Heat shock cognate 71 kDa protein (Homo sapiens)"
  Measured Property: "displacement"
  Test Value: "7% (inactive)"
- Compound: "COc1ccc(C(=O)Nc2ccc3oc(-c4cccc(F)c4)nc3c2)cc1OC"
  Tgt: "Heat shock cognate 71 kDa protein (Homo sapiens)"
  Measured Property: "displacement"
  Test Value: "2.4% (inactive)"
- Compound: "COCCNC(=O)C(c1ccc(C)o1)N(Cc1ccco1)C(=O)c1snc(C(N)=O)c1N (stereo not given)"
  Tgt: "Heat shock cognate 71 kDa protein (Homo sapiens)"
  Measured Property: "displacement"
  Test Value: "5.3% (inactive)"

Recorded displacement (compound `Cc1cnc(NC(=O)c2cc3c(C)nn(-c4ccccc4)c3s2)s1` ): -5.6% (inactive)

Recorded displacement (compound `CCOC(=O)c1sc(=S)n(-c2ccccc2OC)c1N` ): 4.2% (inactive)

Recorded displacement (compound `CCCCNC(=S)NNC(=O)c1ccco1` ): 4% (inactive)

Recorded displacement (compound `Cc1ccc(OCC(=O)Nc2cc(-c3nn4c(C)nnc4s3)ccc2C)cc1` ): 4.5% (inactive)

Recorded displacement (compound `CCOC(=O)c1c(NC(=O)CSc2nnc(-c3cccnc3)o2)sc2c1CCC2` ): -5% (inactive)
